Measured CD23: Fold versus IL13-0001, listed per entry.
# Test Target: human IL-13 (human, UniProt P35225 35-146)
# Sequence (P35225 35-146 limits assumed, form in doubt): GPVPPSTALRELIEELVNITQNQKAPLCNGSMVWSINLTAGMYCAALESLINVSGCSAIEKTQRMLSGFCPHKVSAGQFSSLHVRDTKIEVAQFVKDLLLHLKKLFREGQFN
# Protocol Notes: cell-based or functional assay
Hi! Could you send only the number? It should be in fold, unit omitted.

Below, each entry is followed by its recorded CD23: Fold versus IL13-0001 result.
{"Binder": "IL13-0271 (antibody, IgG1, V domains shown, IgG1 effector-null/kappa IgG; also called IL13433-0271) VH: EVQLVESGGGLVQPGGSLRLSCAASGFTFSSYAMSWVRQAPGKGLEWVASISTGDTTYYPDSVKGRFTISRDNAKNSLYLQMNSLRAEDTAVYYCARNEGYYFGLTQWGRGTLVTVSS VL: DIQMTQSPSSLSASVGDRVTITCRASESVDHFGWSLVHWYQQKPGKAPKLLIYRADSLETGVPSRFSGSGSGTDFTLTISSLQPEDFATYYCQQSNEDPWTFGGGTKVEIK", "Measured Number": 1.01}
{"Binder": "IL13-0259 (antibody, IgG1, V domains shown, IgG1 effector-null/kappa IgG) VH: EVQLVESGGGLVQPGGSLRLSCAASGFTFSSYAMSWVRQAPGKGLEWVASISTGDTTYYPDSVKGRFTISRDNAKNSLYLQMNSLRAEDTAVYYCARNEGYYFGLTQWGRGTLVTVSS VL: DIQMTQSPSSLSASVGDRVTITCRASQSVDHFGWSLVHWYQQKPGKAPKLLIYRASNLESGVPSRFSGSGSGTDFTLTISSLQPEDFATYYCQQSNEDPWTFGGGTKVEIK", "Measured Number": 0.81}

Moving on to the next binder.
Read off the recorded CD23: Fold versus IL13-0001 for IL13-0270 (antibody, V domains shown, IgG1 effector-null/kappa IgG; also called IL13433-0270) VH: EVQLVESGGGLVQPGGSLRLSCAASGFTFSSYAMSWVRQAPGKGLEWVASISTGDTTYYPDSVKGRFTISRDNAKNSLYLQMNSLRAEDTAVYYCARNEGYYFGLTLWGQGTLVTVSS VL: DIQMTQSPSSLSASVGDRVTITCRASESVDHFGWSLVHWYQQKPGKAPKLLIYRADSLETGVPSRFSGSGSGTDFTLTISSLQPEDFATYYCQQSNEDPWTFGGGTKVEIK
0.67
